tgt: Serine/threonine-protein kinase MRCK gamma (Homo sapiens, UniProt Q6DT37)
Sequence (Q6DT37 whole entry): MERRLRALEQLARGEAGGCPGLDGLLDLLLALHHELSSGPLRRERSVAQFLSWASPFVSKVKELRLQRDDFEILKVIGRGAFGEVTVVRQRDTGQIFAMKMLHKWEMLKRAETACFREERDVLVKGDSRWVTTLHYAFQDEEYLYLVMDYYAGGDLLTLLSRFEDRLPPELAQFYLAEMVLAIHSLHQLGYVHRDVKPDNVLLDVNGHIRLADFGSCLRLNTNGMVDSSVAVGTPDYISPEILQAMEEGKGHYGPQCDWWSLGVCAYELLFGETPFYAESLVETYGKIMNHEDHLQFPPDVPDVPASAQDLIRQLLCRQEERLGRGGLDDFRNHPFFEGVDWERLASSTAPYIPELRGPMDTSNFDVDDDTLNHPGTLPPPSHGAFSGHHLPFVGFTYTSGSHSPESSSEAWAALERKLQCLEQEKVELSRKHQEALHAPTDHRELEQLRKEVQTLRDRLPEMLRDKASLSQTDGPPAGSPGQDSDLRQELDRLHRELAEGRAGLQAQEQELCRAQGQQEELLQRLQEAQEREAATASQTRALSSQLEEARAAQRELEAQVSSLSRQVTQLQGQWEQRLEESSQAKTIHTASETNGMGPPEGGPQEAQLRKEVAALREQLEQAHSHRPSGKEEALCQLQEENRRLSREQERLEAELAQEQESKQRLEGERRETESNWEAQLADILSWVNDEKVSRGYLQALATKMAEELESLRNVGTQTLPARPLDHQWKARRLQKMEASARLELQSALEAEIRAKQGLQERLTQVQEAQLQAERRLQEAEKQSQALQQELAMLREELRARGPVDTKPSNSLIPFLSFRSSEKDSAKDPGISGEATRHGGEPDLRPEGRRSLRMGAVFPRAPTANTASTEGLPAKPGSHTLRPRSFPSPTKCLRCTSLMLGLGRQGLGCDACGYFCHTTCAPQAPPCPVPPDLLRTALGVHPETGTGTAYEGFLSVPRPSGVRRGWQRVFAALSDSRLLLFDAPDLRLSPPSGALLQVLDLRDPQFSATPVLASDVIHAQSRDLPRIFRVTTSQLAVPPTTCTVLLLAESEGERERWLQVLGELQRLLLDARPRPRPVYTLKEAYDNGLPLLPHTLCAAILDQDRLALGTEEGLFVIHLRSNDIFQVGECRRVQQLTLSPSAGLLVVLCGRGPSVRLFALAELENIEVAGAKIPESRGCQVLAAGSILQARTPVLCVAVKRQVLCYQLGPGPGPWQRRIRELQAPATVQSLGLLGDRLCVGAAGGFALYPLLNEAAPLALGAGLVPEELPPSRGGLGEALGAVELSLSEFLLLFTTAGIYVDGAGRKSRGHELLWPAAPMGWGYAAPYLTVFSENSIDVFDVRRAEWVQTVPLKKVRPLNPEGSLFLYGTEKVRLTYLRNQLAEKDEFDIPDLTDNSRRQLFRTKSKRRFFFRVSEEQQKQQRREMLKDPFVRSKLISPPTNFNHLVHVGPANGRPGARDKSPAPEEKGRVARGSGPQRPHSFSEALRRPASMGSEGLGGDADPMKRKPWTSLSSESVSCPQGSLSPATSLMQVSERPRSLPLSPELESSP
methodSummary: Binding affinity to recombinant full-length N-terminal His-FLAG-GST-tagged DMPK2 (unknown origin) expressed in baculovirus infected Sf9 insect cells incubated for 1 hr by TR-FRET assay
quantity: Kd (nM)
Give the number; nM is assumed, so skip it.

[in] Quick check: Kd of CO[C@@H]1[C@H](NCCOCCOCCOCCNC(=O)CCC2=[N+]3C(=Cc4c(C)cc(C)n4[B-]3(F)F)C=C2)C[C@H]2O[C@]1(C)n1c3ccccc3c3c4c(c5c6ccccc6n2c5c31)C(=O)NC4 ?
[out] 7

----------
tgt: Serine/threonine-protein kinase 4 (Homo sapiens)
Sequence (Q13043 whole entry): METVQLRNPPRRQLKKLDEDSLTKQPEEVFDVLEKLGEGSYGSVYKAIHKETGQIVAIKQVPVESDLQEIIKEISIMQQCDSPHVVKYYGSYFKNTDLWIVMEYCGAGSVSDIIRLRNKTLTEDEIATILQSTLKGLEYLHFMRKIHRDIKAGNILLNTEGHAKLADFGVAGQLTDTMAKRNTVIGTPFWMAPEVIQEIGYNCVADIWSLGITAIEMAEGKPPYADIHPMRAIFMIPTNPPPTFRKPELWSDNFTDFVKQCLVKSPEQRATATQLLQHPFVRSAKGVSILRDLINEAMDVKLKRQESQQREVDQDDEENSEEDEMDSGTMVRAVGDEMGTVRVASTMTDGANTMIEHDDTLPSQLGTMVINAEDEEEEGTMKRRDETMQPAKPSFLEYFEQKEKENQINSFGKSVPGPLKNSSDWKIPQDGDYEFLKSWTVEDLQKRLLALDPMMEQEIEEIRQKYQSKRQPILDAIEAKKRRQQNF
methodSummary: Binding affinity to recombinant full-length N-terminal His-FLAG-GST-tagged STK4 (unknown origin) expressed in baculovirus infected Sf9 insect cells incubated for 1 hr by TR-FRET assay
quantity: Kd (nM)
Quick note: give the figure in nM, leave out the unit.

CO[C@@H]1[C@H](NCCOCCOCCOCCNC(=O)CCC2=[N+]3C(=Cc4c(C)cc(C)n4[B-]3(F)F)C=C2)C[C@H]2O[C@]1(C)n1c3ccccc3c3c4c(c5c6ccccc6n2c5c31)C(=O)NC4
7

Below: the item to evaluate.
[in] Give the measured Kd of CO[C@@H]1[C@H](N(C)CCOCCOCCOCCNC(=O)CCC2=[N+]3C(=Cc4c(C)cc(C)n4[B-]3(F)F)C=C2)C[C@H]2O[C@]1(C)n1c3ccccc3c3c4c(c5c6ccccc6n2c5c31)C(=O)NC4 .
[out] 4

----------
tgt: Ephrin type-B receptor 6 (Homo sapiens, UniProt O15197)
methodSummary: Binding affinity to recombinant N-terminal His-FLAG-GST-tagged EPHB6 (unknown origin) (683 to 1130 residues) expressed in baculovirus infected Sf9 insect cells incubated for 1 hr by TR-FRET assay
quantity: pKd
Scale for pKd: -log10 of concentration given in mol/L; no unit attached.

[in] # input compound: CO[C@@H]1[C@H](NCCOCCOCCOCCNC(=O)CCC2=[N+]3C(=Cc4c(C)cc(C)n4[B-]3(F)F)C=C2)C[C@H]2O[C@]1(C)n1c3ccccc3c3c4c(c5c6ccccc6n2c5c31)C(=O)NC4 ; wanted: its pKd
[out] 6.24

----------
tgt: Fibroblast growth factor receptor 3 (Homo sapiens)
Sequence (P22607 whole entry, the tested form may be a part): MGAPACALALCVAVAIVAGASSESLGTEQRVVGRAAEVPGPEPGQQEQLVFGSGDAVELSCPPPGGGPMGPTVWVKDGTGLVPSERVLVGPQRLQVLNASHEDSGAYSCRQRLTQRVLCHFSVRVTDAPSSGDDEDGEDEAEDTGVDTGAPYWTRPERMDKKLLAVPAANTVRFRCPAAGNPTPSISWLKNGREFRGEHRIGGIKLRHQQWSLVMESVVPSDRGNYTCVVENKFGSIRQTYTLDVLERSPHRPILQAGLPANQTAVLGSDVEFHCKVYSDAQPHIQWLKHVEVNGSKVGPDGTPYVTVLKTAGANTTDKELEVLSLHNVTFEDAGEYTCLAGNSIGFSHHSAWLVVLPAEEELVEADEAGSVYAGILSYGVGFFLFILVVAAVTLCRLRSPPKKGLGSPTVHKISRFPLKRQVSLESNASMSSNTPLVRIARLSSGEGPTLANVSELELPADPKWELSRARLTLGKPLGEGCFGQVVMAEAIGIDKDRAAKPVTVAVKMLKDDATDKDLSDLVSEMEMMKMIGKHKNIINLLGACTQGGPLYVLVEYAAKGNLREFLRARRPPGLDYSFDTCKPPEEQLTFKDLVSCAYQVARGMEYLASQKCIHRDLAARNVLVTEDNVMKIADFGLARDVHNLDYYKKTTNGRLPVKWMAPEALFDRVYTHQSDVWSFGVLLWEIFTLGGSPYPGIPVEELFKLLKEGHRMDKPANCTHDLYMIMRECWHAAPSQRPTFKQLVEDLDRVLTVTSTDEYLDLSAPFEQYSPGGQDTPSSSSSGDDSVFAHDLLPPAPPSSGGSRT
methodSummary: Binding affinity to recombinant N-terminal His-FLAG-GST-tagged FGFR3 (unknown origin) (436 to 806 residues) expressed in baculovirus infected Sf9 insect cells incubated for 1 hr by TR-FRET assay
quantity: pKd
Entry type: numeric. Quantity: pKd, the -log10 of concentration in molar units.

CO[C@@H]1[C@H](N(C)CCOCCOCCOCCNC(=O)CCC2=[N+]3C(=Cc4c(C)cc(C)n4[B-]3(F)F)C=C2)C[C@H]2O[C@]1(C)n1c3ccccc3c3c4c(c5c6ccccc6n2c5c31)C(=O)NC4
6.07

[in] Please state recorded pKd (tested on Fibroblast growth factor receptor 3 (Homo sapiens)) of CO[C@@H]1[C@H](NCCOCCOCCOCCNC(=O)CCC2=[N+]3C(=Cc4c(C)cc(C)n4[B-]3(F)F)C=C2)C[C@H]2O[C@]1(C)n1c3ccccc3c3c4c(c5c6ccccc6n2c5c31)C(=O)NC4
[out] 6.39

----------
tgt: UniProt:P35916
Sequence (P35916 whole entry, the tested form may be a part): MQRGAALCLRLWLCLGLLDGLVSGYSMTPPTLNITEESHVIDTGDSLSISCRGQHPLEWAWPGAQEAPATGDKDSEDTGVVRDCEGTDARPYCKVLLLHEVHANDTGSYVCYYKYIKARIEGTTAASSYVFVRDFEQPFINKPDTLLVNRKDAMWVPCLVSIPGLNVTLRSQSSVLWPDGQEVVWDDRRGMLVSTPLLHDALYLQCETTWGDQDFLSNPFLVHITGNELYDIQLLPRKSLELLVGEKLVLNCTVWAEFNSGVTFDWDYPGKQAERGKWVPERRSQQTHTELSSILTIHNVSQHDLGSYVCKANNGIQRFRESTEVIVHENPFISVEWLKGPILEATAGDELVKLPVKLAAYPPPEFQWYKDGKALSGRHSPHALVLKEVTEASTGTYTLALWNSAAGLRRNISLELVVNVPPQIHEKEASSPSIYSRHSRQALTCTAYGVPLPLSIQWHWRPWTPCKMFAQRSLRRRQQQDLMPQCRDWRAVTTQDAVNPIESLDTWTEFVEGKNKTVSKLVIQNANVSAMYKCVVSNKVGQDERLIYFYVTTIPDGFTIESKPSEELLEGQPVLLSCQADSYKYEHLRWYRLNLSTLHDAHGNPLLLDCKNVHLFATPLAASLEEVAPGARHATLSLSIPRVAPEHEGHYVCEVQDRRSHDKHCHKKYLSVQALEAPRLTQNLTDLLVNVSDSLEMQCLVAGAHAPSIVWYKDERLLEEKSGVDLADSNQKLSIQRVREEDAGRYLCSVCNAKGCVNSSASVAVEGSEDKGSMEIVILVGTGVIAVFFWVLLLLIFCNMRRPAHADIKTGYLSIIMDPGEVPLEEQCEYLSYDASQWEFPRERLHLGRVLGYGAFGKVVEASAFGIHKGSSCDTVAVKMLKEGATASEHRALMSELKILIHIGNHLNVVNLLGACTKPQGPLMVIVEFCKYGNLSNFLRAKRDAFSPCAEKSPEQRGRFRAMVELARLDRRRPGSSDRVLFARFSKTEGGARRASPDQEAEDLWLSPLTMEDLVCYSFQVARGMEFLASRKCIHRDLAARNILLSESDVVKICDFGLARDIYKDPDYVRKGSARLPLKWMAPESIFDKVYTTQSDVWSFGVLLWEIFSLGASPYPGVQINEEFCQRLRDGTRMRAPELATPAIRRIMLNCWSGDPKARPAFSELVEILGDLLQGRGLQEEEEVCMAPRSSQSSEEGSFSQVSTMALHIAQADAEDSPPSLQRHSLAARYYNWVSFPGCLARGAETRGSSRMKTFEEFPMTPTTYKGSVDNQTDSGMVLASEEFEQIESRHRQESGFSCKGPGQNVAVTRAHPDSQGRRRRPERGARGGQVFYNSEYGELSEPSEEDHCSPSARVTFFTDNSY
methodSummary: Binding affinity to recombinant N-terminal His-FLAG-GST-tagged FLT4 (unknown origin) (798 to 1298 residues) expressed in baculovirus infected Sf9 insect cells incubated for 1 hr by TR-FRET assay
This section presents compounds with their documented pKd values.
Bear in mind: pKd is minus log10 of a mol/L concentration; give just that figure.

CO[C@@H]1[C@H](NCCOCCOCCOCCNC(=O)CCC2=[N+]3C(=Cc4c(C)cc(C)n4[B-]3(F)F)C=C2)C[C@H]2O[C@]1(C)n1c3ccccc3c3c4c(c5c6ccccc6n2c5c31)C(=O)NC4
7.21

Let us move to another entry and its pKd.
[in] Could you share which pKd value was measured for CO[C@@H]1[C@H](N(C)CCOCCOCCOCCNC(=O)CCC2=[N+]3C(=Cc4c(C)cc(C)n4[B-]3(F)F)C=C2)C[C@H]2O[C@]1(C)n1c3ccccc3c3c4c(c5c6ccccc6n2c5c31)C(=O)NC4 ?
[out] 7.11
